# method-summary: Rat plasma pharmacokinetics after 10-day vehicle/SLE and digoxin or GE
# Format: in vivo, Sprague-Dawley rats
# details: female, Sprague-Dawley, rat, plasma, po, rats, SLE 500 mg/kg ig once a day for 10 days, day 11 digoxin 0.5 mg/kg or GE 120 mg/kg ig; read-out: Tmax
quantity-kind: Tmax (h)
Answer with a number only, understood to be in h.

compound	Tmax, h
CC(C)=CCC[C@](C)(O[C@@H]1O[C@H](CO[C@@H]2OC[C@H](O)[C@H](O)[C@H]2O)[C@@H](O)[C@H](O)[C@H]1O)[C@H]1CC[C@]2(C)[C@@H]1[C@H](O)C[C@@H]1[C@@]3(C)CC[C@H](O[C@@H]4O[C@H](CO)[C@@H](O)[C@H](O)[C@H]4O[C@@H]4O[C@H](CO)[C@@H](O)[C@H](O)[C@H]4O)C(C)(C)[C@@H]3CC[C@]12C [Rb2, ginsenoside Rb2]	10
C[C@H]1O[C@@H](O[C@H]2[C@@H](O)C[C@H](O[C@H]3[C@@H](O)C[C@H](O[C@H]4CC[C@@]5(C)[C@H](CC[C@@H]6[C@@H]5C[C@@H](O)[C@]5(C)[C@@H](C7=CC(=O)OC7)CC[C@]65O)C4)O[C@@H]3C)O[C@@H]2C)C[C@H](O)[C@@H]1O [Digoxin, digoxin, reference compound]	3.28

Item CC(C)=CCC[C@](C)(O[C@@H]1O[C@H](CO[C@@H]2O[C@H](CO)[C@@H](O)[C@H](O)[C@H]2O)[C@@H](O)[C@H](O)[C@H]1O)[C@H]1CC[C@]2(C)[C@@H]1[C@H](O)C[C@@H]1[C@@]3(C)CC[C@H](O[C@@H]4O[C@H](CO)[C@@H](O)[C@H](O)[C@H]4O[C@@H]4O[C@H](CO)[C@@H](O)[C@H](O)[C@H]4O)C(C)(C)[C@@H]3CC[C@]12C [Rb1, ginsenoside Rb1] has what recorded Tmax?
9.6

###

Each record here notes measured MRT inf.
# method-summary: Rat plasma pharmacokinetics after 10-day vehicle/SLE and digoxin or GE
# Assay type: in vivo, Sprague-Dawley rats
# details: female, Sprague-Dawley, rat, plasma, po, rats, control: vehicle once a day for 10 days, day 11 digoxin 0.5 mg/kg or GE 120 mg/kg ig; read-out: MRTINF_obs
# Description: This study was carried out in strict accordance with the recommendations in the Guide for the Care and Use of Laboratory Animals of the National Institutes of Health. […] Pharmacokinetic parameters were calculated using the WinNonlin 6.3 program (Pharsight Inc., Mountain View, CA). The elimination half-life (t 1/2) value was calculated as 0.693/β, where β is the elimination rate constant calculated from the terminal linear portion of the log plasma concentration-time curve. […]
Answer with a number only, understood to be in h.

Known MRT inf results, listed for orientation:
compound	MRT inf (h)
CC(C)=CCC[C@](C)(O[C@@H]1O[C@H](CO[C@@H]2OC[C@H](O)[C@H](O)[C@H]2O)[C@@H](O)[C@H](O)[C@H]1O)[C@H]1CC[C@]2(C)[C@@H]1[C@H](O)C[C@@H]1[C@@]3(C)CC[C@H](O[C@@H]4O[C@H](CO)[C@@H](O)[C@H](O)[C@H]4O[C@@H]4O[C@H](CO)[C@@H](O)[C@H](O)[C@H]4O)C(C)(C)[C@@H]3CC[C@]12C [Rb2, ginsenoside Rb2]	29.5
CC(C)=CCC[C@](C)(O[C@@H]1O[C@H](CO)[C@@H](O)[C@H](O)[C@H]1O)[C@H]1CC[C@]2(C)[C@@H]1[C@H](O)C[C@@H]1[C@@]3(C)CC[C@H](O[C@@H]4O[C@H](CO)[C@@H](O)[C@H](O)[C@H]4O[C@@H]4O[C@H](CO)[C@@H](O)[C@H](O)[C@H]4O)C(C)(C)[C@@H]3CC[C@]12C [Rd, ginsenoside Rd]	22.4
CC(C)=CCC[C@](C)(O[C@@H]1O[C@H](CO[C@@H]2O[C@H](CO)[C@@H](O)[C@H](O)[C@H]2O)[C@@H](O)[C@H](O)[C@H]1O)[C@H]1CC[C@]2(C)[C@@H]1[C@H](O)C[C@@H]1[C@@]3(C)CC[C@H](O[C@@H]4O[C@H](CO)[C@@H](O)[C@H](O)[C@H]4O[C@@H]4O[C@H](CO)[C@@H](O)[C@H](O)[C@H]4O)C(C)(C)[C@@H]3CC[C@]12C [Rb1, ginsenoside Rb1]	28.1

Item C[C@H]1O[C@@H](O[C@H]2[C@@H](O)C[C@H](O[C@H]3[C@@H](O)C[C@H](O[C@H]4CC[C@@]5(C)[C@H](CC[C@@H]6[C@@H]5C[C@@H](O)[C@]5(C)[C@@H](C7=CC(=O)OC7)CC[C@]65O)C4)O[C@@H]3C)O[C@@H]2C)C[C@H](O)[C@@H]1O [Digoxin, digoxin, reference compound] has what recorded MRT inf?
5.65

###

# method-summary: Rat plasma pharmacokinetics after single-dose vehicle/SLE and digoxin or GE
# Type: in vivo, Sprague-Dawley rats
# details: female, Sprague-Dawley, rat, plasma, po, rats, control: single vehicle, 2 h later digoxin 0.5 mg/kg or GE 120 mg/kg ig; read-out: AUCINF_obs
# Description: This study was carried out in strict accordance with the recommendations in the Guide for the Care and Use of Laboratory Animals of the National Institutes of Health. […] Pharmacokinetic parameters were calculated using the WinNonlin 6.3 program (Pharsight Inc., Mountain View, CA). The elimination half-life (t 1/2) value was calculated as 0.693/β, where β is the elimination rate constant calculated from the terminal linear portion of the log plasma concentration-time curve. […]
Each record here notes measured AUC(0-inf).
Answer with a number only, understood to be in ng·h/mL.

compound	unit-text	meas-value
C[C@H]1O[C@@H](O[C@H]2[C@@H](O)C[C@H](O[C@H]3[C@@H](O)C[C@H](O[C@H]4CC[C@@]5(C)[C@H](CC[C@@H]6[C@@H]5C[C@@H](O)[C@]5(C)[C@@H](C7=CC(=O)OC7)CC[C@]65O)C4)O[C@@H]3C)O[C@@H]2C)C[C@H](O)[C@@H]1O [Digoxin, digoxin, reference compound]	ng·h/mL	67.5
CC(C)=CCC[C@](C)(O[C@@H]1O[C@H](CO)[C@@H](O)[C@H](O)[C@H]1O)[C@H]1CC[C@]2(C)[C@@H]1[C@H](O)C[C@@H]1[C@@]3(C)CC[C@H](O[C@@H]4O[C@H](CO)[C@@H](O)[C@H](O)[C@H]4O[C@@H]4O[C@H](CO)[C@@H](O)[C@H](O)[C@H]4O)C(C)(C)[C@@H]3CC[C@]12C [Rd, ginsenoside Rd]	ng·h/mL	7410
CC(C)=CCC[C@](C)(O[C@@H]1O[C@H](CO[C@@H]2OC[C@H](O)[C@H](O)[C@H]2O)[C@@H](O)[C@H](O)[C@H]1O)[C@H]1CC[C@]2(C)[C@@H]1[C@H](O)C[C@@H]1[C@@]3(C)CC[C@H](O[C@@H]4O[C@H](CO)[C@@H](O)[C@H](O)[C@H]4O[C@@H]4O[C@H](CO)[C@@H](O)[C@H](O)[C@H]4O)C(C)(C)[C@@H]3CC[C@]12C [Rb2, ginsenoside Rb2]	ng·h/mL	10600

// switching to the query compound
Item CC(C)=CCC[C@](C)(O[C@@H]1O[C@H](CO[C@@H]2O[C@H](CO)[C@@H](O)[C@H](O)[C@H]2O)[C@@H](O)[C@H](O)[C@H]1O)[C@H]1CC[C@]2(C)[C@@H]1[C@H](O)C[C@@H]1[C@@]3(C)CC[C@H](O[C@@H]4O[C@H](CO)[C@@H](O)[C@H](O)[C@H]4O[C@@H]4O[C@H](CO)[C@@H](O)[C@H](O)[C@H]4O)C(C)(C)[C@@H]3CC[C@]12C [Rb1, ginsenoside Rb1] has what recorded AUC(0-inf)?
14400

###

# subject-of-test: P-gp (MDR1) (Homo sapiens)
# Sequence (P08183 whole entry): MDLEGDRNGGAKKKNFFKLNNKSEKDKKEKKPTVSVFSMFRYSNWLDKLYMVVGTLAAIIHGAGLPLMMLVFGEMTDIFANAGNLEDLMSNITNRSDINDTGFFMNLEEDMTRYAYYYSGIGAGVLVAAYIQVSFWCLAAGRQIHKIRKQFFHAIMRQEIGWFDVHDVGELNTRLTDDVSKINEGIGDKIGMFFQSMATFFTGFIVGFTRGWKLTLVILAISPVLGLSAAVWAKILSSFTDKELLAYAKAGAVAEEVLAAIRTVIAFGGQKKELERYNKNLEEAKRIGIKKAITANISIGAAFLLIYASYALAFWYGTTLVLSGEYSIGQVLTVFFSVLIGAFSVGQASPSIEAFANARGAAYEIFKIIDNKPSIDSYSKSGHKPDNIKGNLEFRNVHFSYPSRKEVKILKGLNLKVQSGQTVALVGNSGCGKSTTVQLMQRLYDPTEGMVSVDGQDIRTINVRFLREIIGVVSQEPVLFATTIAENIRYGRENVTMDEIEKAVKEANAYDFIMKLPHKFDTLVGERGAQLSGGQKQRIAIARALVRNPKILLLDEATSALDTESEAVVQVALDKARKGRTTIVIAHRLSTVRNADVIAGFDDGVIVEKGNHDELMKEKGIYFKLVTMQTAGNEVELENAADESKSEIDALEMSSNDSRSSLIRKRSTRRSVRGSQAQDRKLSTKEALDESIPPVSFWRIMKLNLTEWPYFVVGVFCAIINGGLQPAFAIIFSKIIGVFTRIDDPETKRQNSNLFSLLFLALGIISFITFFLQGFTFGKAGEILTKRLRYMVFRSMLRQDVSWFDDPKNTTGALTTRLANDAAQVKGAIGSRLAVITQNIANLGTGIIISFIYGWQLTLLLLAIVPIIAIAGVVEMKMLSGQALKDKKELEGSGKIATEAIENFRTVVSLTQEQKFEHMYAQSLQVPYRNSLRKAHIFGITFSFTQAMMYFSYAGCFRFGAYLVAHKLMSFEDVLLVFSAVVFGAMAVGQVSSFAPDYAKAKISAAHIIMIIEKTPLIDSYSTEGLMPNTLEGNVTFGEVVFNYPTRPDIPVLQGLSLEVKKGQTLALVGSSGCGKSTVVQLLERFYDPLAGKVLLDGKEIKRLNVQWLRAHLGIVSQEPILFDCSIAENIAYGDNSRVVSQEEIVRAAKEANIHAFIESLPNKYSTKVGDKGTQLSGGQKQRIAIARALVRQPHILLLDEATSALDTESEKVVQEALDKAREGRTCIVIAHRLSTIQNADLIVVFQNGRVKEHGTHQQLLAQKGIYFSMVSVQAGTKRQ
# method-summary: Transport of digoxin and ginsenosides across L-MDR1 cell monolayers (efflux ratio)
# Format: in vitro ADME
# details: human, LLC-PK1, pH 7.4, with verapamil 10 µM, L-MDR1 cells, presence of 10 µM verapamil; read-out: Efflux ratio (Papp BL-AP / Papp AP-BL)
quantity-kind: efflux ratio at 2 h, 100 µg/mL
I only need the number, thanks.

Item CC(C)=CCC[C@](C)(O[C@@H]1O[C@H](CO)[C@@H](O)[C@H](O)[C@H]1O)[C@H]1CC[C@]2(C)[C@@H]1[C@H](O)C[C@@H]1[C@@]3(C)CC[C@H](O)C(C)(C)[C@@H]3[C@@H](O[C@@H]3O[C@H](CO)[C@@H](O)[C@H](O)[C@H]3O)C[C@]12C [Rg1, ginsenoside Rg1] has what recorded efflux ratio at 2 h, 100 µg/mL?
1.16

Item CC(C)=CCC[C@](C)(O[C@@H]1O[C@H](CO)[C@@H](O)[C@H](O)[C@H]1O)[C@H]1CC[C@]2(C)[C@@H]1[C@H](O)C[C@@H]1[C@@]3(C)CC[C@H](O)C(C)(C)[C@@H]3[C@@H](O)C[C@]12C [F1, ginsenoside F1] has what recorded efflux ratio at 2 h, 100 µg/mL?
1.99

Item CC(C)=CCC[C@](C)(O[C@@H]1O[C@H](CO)[C@@H](O)[C@H](O)[C@H]1O)[C@H]1CC[C@]2(C)[C@@H]1[C@H](O)C[C@@H]1[C@@]3(C)CC[C@H](O[C@@H]4O[C@H](CO)[C@@H](O)[C@H](O)[C@H]4O[C@@H]4O[C@H](CO)[C@@H](O)[C@H](O)[C@H]4O)C(C)(C)[C@@H]3CC[C@]12C [Rd, ginsenoside Rd] has what recorded efflux ratio at 2 h, 100 µg/mL?
2.19

Item C[C@H]1O[C@@H](O[C@H]2[C@@H](O)C[C@H](O[C@H]3[C@@H](O)C[C@H](O[C@H]4CC[C@@]5(C)[C@H](CC[C@@H]6[C@@H]5C[C@@H](O)[C@]5(C)[C@@H](C7=CC(=O)OC7)CC[C@]65O)C4)O[C@@H]3C)O[C@@H]2C)C[C@H](O)[C@@H]1O [Digoxin, digoxin, reference compound] has what recorded efflux ratio at 2 h, 100 µg/mL?
8.23
